Molecular target: T1, Recombinant MBP-mutCALR Type 1 fusion protein (human)
T1 construct: custom made at Cepter; also called recombinant mutCALR protein
Test: SPR, IgG captured, 1:1 fit, Exp. 1
What kon was measured for each of the following?
Answers are plain numbers, in M⁻¹ s⁻¹.

// known answers, use as guide
{"binder": "anti-mutCALR antibody clone 45 (antibody, human IgG1, lambda, V domains shown, human IgG1) VH: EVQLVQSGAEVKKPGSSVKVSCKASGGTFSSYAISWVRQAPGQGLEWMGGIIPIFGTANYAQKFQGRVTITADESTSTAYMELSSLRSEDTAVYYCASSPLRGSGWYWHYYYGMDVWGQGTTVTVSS VL: SYVLTQPLSVSVAPGQTARITCGGNNIGRKSVHWYQQKPGQAPVLVIYRDSNRPSGIPERFSGSNSGNTATLTISRAQAGDEADYYCQVWDSSTVVFGGGTKLTVLG", "observation.type": "kon", "measurement": 214000}
{"binder": "anti-mutCALR antibody clone 48 (antibody, human IgG1, lambda, V domains shown, human IgG1) VH: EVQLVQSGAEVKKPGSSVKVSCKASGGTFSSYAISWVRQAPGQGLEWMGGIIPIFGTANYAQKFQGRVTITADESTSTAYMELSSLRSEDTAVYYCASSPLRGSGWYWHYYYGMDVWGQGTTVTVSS VL: SYVLTQPPSVSVAPGKTARITCGGNNIGSKSVHWYQQKPGQAPVLVIYQDRKRPSGIPERFSGSNSGNTATLTISGTQAMDEADYYCQAWDSSTAVFGGGTKLTVLG", "observation.type": "kon", "measurement": 181000}

From here, focus on the item given below.
Task: Requested field: kon. Item: anti-mutCALR antibody clone 42 (antibody, human IgG1, lambda, V domains shown, human IgG1) VH: EVQLVQSGAEVKKPGASVKVSCKVSGYTLTELSMHWVRQAPGKGLEWMGLVDPEDGETIYAQKFQGRVTMTEDTSTDTAYMELSSLRSEDTAVYYCAREEWSGDGDDAFDIWGQGTMVTVSS VL: QSVLTQPPSVSAAPGQKVTISCSGSSSNIGSYSVSWYQQLPGTAPKLLIYDDNKRPSGIPDRFSGSNSGTSATLSITGLQTGDEADYYCGTWDSSLSAWVFGGGTKLTVLG
Output: 649000

Origin of the recorded values: patent US20230272055A1
